molecular target: M. fascicularis KLB and human FGFR1c co-expressed on HEK293/MfKLB/hFGFR1c/SRE-Luc cells (M. fascicularis; human, UniProt A0A2K5WB58 1-1044); test: cell-based or functional assay
Sequence (chain, as listed by the source, chain 1 of 2): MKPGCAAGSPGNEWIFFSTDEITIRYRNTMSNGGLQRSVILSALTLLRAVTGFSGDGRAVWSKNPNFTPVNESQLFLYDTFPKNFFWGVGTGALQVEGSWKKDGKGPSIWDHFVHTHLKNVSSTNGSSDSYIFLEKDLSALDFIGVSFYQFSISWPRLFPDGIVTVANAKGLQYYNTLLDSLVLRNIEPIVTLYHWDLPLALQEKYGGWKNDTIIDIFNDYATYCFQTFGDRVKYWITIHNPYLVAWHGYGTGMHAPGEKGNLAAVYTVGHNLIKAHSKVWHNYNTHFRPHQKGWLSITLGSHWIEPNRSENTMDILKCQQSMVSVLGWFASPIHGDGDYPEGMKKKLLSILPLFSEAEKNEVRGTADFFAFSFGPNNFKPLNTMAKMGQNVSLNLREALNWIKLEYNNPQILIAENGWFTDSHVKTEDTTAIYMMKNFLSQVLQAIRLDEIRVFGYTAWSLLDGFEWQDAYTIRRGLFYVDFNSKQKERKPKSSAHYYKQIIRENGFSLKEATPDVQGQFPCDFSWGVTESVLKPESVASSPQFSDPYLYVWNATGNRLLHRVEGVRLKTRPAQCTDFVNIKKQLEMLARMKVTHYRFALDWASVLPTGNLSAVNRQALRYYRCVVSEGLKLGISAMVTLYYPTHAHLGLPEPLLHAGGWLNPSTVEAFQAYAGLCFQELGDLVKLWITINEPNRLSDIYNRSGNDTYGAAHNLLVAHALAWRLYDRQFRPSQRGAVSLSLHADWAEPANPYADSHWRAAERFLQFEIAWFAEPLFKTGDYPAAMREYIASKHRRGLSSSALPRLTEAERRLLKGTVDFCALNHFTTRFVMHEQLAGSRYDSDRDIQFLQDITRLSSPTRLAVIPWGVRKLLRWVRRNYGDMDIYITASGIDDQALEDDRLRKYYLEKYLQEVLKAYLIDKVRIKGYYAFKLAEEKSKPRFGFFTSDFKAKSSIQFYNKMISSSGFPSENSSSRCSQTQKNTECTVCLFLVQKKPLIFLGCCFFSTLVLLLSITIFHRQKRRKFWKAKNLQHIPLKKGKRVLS
Sequence (chain, as listed by the source, chain 2 of 2): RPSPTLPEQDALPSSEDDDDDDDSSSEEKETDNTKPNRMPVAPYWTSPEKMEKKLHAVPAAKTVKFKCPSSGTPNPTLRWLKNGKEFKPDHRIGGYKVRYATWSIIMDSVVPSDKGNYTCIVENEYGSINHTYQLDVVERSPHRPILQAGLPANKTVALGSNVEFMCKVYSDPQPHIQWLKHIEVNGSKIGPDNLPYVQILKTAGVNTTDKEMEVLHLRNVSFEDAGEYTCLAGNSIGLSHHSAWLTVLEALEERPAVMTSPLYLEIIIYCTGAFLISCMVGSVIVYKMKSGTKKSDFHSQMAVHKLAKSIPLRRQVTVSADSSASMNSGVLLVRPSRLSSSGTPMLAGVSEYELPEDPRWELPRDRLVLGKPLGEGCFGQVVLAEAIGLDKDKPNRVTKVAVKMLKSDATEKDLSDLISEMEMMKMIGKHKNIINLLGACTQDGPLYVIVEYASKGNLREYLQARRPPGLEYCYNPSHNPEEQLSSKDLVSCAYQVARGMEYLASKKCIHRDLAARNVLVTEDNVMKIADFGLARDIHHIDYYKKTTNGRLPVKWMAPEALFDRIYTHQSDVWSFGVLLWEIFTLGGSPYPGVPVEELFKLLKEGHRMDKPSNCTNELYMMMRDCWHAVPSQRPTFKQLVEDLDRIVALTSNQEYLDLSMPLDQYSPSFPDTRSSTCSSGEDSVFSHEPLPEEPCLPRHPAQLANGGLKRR
Reported Metric: IC50, inhibition of 10 nM mfFGF21 (nM)
Give the number; nM is assumed, so skip it.

{"Binder": "H1H8898P (antibody, V domains shown, H1H Fc prefix (human Fc)) VH: QVQLVESGGGLVKPGGSLRLSCAASGFIFSDYYMSWIRQAPGKGLDWISYISPSGSTIYYADSVKGRFTISRDNAKNSLYLQMNSLRADDTAVYYCARTGIQLWSVYFDYWGQGTLVTVSS VL: EIVMTQSPATLSVSPGERATLSCRASQSVGSNLAWYQQKPGQAPRLLIYGASTRANGIPARFSGSGSGTEFTLTISGLQSEDFAVYYCQQYNNWPTFGQGTKLEIK", "IC50, inhibition of 10 nM mfFGF21 / nM": 12}

Problem: Which value of IC50, inhibition of 10 nM mfFGF21 has been reported for H4H8837P (antibody, V domains shown, human IgG4 Fc (H4H prefix)) VH: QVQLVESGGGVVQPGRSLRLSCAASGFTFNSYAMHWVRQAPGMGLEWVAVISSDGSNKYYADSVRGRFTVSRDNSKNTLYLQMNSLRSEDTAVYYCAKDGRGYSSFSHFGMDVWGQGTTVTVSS VL: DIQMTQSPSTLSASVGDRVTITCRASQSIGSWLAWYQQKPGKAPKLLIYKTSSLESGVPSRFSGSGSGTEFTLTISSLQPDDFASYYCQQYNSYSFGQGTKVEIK in the records?
Solution: 0.089

Problem: Which value of IC50, inhibition of 10 nM mfFGF21 has been reported for H2aM8091N (antibody, V domains shown, mouse IgG2 Fc (H2aM prefix); also called H2M8091N) VH: QVQLVQSGADMKKPGASVKVSCKASGYTFTTYGINWVRQAPGQGLEWMGWISAYSGITNYAQSFQGRVTMTTDTSTSTAYMELRSLRSDDTAVYYCARGGYNWATGDYFDYWGQGTLVTVSS VL: DIQMTQSPSTLSASIGDRVTITCRASQSISSWLAWYQQKPGKAPKFLIYKASSLASGVPSRFSGSGSGTEFTLTISSLQPDDFATYYCQQYDSYSPYTFGQGTKVEIK in the records?
Solution: 2.3
